Sourced from PubChem BioAssay AID1778

Assignment: determine reported inhibition for the given compounds.
# ASSAY_TARGET: Kappa-type opioid receptor (Homo sapiens) (UniProt P41145)
# Sequence (P41145 whole entry, looked up): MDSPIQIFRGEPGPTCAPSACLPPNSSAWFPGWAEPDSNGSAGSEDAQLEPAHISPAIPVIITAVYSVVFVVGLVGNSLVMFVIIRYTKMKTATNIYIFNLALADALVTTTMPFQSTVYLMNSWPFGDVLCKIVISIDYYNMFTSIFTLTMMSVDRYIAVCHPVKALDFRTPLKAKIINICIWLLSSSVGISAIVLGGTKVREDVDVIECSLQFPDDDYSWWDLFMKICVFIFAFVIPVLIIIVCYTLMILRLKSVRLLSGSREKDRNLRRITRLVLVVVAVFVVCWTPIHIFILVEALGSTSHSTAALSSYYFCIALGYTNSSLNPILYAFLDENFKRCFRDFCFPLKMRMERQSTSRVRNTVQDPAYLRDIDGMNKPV
# ASSAY_PROTOCOL: kappa opioid receptor blockers – cell-based, luminescence, uHTS (AID 1778)
# CONDITION_INFO: KOR beta-arrestin recruitment, antagonist mode, hits give high values; at 10 µM unless noted
Among all 290,000 compounds or so, about 260 (0.09%) were called active. This is one part of a sample in which actives are shown more often than they occur. Potency and affinity values are given separately.

# count of solved cases: 3
Cc1nc(NC(=O)CSC2=NCCS2)sc1C(=O)N(C)C	-22.6% (inactive)
NS(=O)(=O)c1ccc(NC(=O)Nc2ccc(S(N)(=O)=O)cc2)cc1	27.6% (inactive)
O=C(CC1C(=O)NCCN1Cc1cccc(Oc2ccccc2)c1)NCCCn1cccn1 (centres undefined)	-2.5% (inactive)

Hey, can you go through the list below and give me inhibition for every item?
1. CN(C)CC(CCC(CN(C)C)C(=O)c1ccccc1)C(=O)c1ccccc1 (centres undefined)
2. O=C(Cn1cnc2c(cnn2-c2ccccc2)c1=O)N1CCCc2ccccc21
3. COc1ccccc1OC(C)C(=O)NNC(=S)NC1CCCC1 (centres undefined)
4. O=C1CC(C2CCCO2)C(=O)N1c1ccccc1 (centres undefined)
5. Nc1nc(NC(=O)c2cccs2)nn1-c1ccccc1

## Result
83.9% (active)
-16.3% (inactive)
1.5% (inactive)
-21.9% (inactive)
-23% (inactive)

Hey, can you go through the list below and give me inhibition for every item?
1. COc1cc(CNS(=O)(=O)c2ccc3c(c2)CC(C)N3C(=O)C2CCC2)cc(OC)c1OC (centres undefined)
2. COc1cccc(Cn2c(=O)c3[nH]cnc3n(-c3ccccc3C)c2=O)c1
3. CC1=NN(c2ccc(C)cc2)C(=O)/C1=C\C=C\c1ccccc1
4. C/C(=N\NC(=O)c1ccc(F)cc1)c1ccccn1
5. COc1cc2c(cc1OC)C1(CCCC1)CNC2C (centres undefined)
6. COC(=O)c1cccc(-n2c(=O)n(Cc3ccccc3)c(=O)c3[nH]cnc32)c1C

## Result
["-10.7% (inactive)", "7.3% (inactive)", "-74.7% (inactive)", "86.6% (active)", "7.4% (inactive)", "23.8% (inactive)"]

Hey, can you go through the list below and give me inhibition for every item?
1. CCOC(=O)c1cc(-c2ccc(N3CCOCC3)cc2)nn1-c1ccc(F)cc1F
2. O=C(Cc1cccs1)Nc1ccccc1C(=O)O
3. O=C(Nc1nnc(-c2ccc3c(c2)OCCO3)o1)c1ccc(Cc2ccccc2)cc1

## Result
21.8% (inactive)
27.3% (inactive)
51.8% (active)

Hey, can you go through the list below and give me inhibition for every item?
1. COc1ccc(-c2nnc(NC(=O)c3ccc4c(c3)OCCO4)o2)cc1
2. N#Cc1c(C(F)(F)F)cc(-c2ccc(Cl)c(Cl)c2)nc1SCCN1CCOCC1

## Result
1: 29.6% (inactive); 2: -29.4% (inactive)

Hey, can you go through the list below and give me inhibition for every item?
1. CCOc1ccc(C(=O)C(CCC(CN(C)C)C(=O)c2ccc(OCC)cc2)CN(C)C)cc1 (centres undefined)
2. O=C(Nc1nnc(-c2ccco2)o1)c1ccc2ccccc2c1
3. CCOC(=O)c1cc2cc(CC(=O)c3ccc(OCC)cc3O)ccc2o1
4. COc1ccc(Cn2c(=O)c3[nH]cnc3n(-c3ccccc3C)c2=O)cc1
5. COCCOC(=O)c1[nH]c2c(c1C)C(=O)CC(c1ccc(OC)c(OC)c1)C2 (centres undefined)
6. COc1cc2c(cc1OC)C1(CCCC1)CNC2c1ccc([N+](=O)[O-])cc1 (centres undefined)
7. CC(C)N(C(=O)COC(=O)c1ccccc1C(=O)c1ccc(Cl)c([N+](=O)[O-])c1)C(C)C

## Result
15.2% (inactive)
89.7% (active)
-2% (inactive)
-13.7% (inactive)
-5.3% (inactive)
-8.4% (inactive)
24.3% (inactive)

Hey, can you go through the list below and give me inhibition for every item?
1. O=[N+]([O-])c1ccc2nc(-c3ccccc3)cc(-c3ccccc3)c2c1
2. O=C(NC1(C(F)(F)F)OCCO1)c1ccc(F)cc1
3. COC(=O)c1cc(C(=O)NCC2CCCCC2)cc([N+](=O)[O-])c1

## Result
1. 14.3% (inactive)
2. -28.6% [at 20 µM] (inactive)
3. 7.5% (inactive)
